target: T1, CBF1/RBPJk (UniProt Q06330 1-500); test: EMSA supershift with heparin-agarose purified CBF1 and Cp CBF1 site probe; phosphoimager, relative to wild-type EBNA2(252-425)
T1 construct: also called CBF1 tethering protein
T1 sequence (Q06330 whole entry): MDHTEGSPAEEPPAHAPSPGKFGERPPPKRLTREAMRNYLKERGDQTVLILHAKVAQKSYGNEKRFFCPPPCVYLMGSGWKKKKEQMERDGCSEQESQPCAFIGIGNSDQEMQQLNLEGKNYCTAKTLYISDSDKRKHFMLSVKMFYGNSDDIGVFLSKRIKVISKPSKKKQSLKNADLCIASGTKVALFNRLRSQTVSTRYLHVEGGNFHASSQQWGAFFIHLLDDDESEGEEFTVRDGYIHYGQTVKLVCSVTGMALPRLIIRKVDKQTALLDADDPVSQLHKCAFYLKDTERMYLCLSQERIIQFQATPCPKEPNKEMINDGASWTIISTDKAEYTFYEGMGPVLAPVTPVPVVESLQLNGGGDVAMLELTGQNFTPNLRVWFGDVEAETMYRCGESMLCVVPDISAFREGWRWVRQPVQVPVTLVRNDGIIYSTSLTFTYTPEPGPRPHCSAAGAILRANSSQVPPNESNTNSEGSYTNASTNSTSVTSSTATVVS
MEASURED_ENDPOINT: % Complex formation (%)
Just the number please, in %, no unit attached.

Name the recorded % Complex formation of the binder listed here: EBNA2 252-425 SR360VD (PKC) (other, range 252-425; In vitro transcribed and translated; also called PKC mutation) LHVPDQSMHPLTHQSTPNDPDSPEPRSPTVFYNIPPMPLPPSQLPPPAAPAQPPPGVINDQQLHHLPSGPPWWPPICDPPQPSKTQGQSRGQSRGRGRGRGRGRGKGKVDDKQRKPGGPWRPEPNTSSPSMPELSPVLGLHQGQGAGDSPTPGPSNAAPVCRNSHTATPNVSPI
60

Name the recorded % Complex formation of the binder listed here: EBNA2 252-425 GP320SR (CR6) (other, range 252-425; In vitro transcribed and translated) LHVPDQSMHPLTHQSTPNDPDSPEPRSPTVFYNIPPMPLPPSQLPPPAAPAQPPPGVINDQQLHHLPSSRPWWPPICDPPQPSKTQGQSRGQSRGRGRGRGRGRGKGKSRDKQRKPGGPWRPEPNTSSPSMPELSPVLGLHQGQGAGDSPTPGPSNAAPVCRNSHTATPNVSPI
90

Name the recorded % Complex formation of the binder listed here: EBNA2 252-425 PI326SR (CR6) (other, range 252-425; In vitro transcribed and translated) LHVPDQSMHPLTHQSTPNDPDSPEPRSPTVFYNIPPMPLPPSQLPPPAAPAQPPPGVINDQQLHHLPSGPPWWPSRCDPPQPSKTQGQSRGQSRGRGRGRGRGRGKGKSRDKQRKPGGPWRPEPNTSSPSMPELSPVLGLHQGQGAGDSPTPGPSNAAPVCRNSHTATPNVSPI
5

Name the recorded % Complex formation of the binder listed here: EBNA2 252-425 LGL389SRT (CR7) (other, range 252-425; In vitro transcribed and translated; also called CR7 mutation) LHVPDQSMHPLTHQSTPNDPDSPEPRSPTVFYNIPPMPLPPSQLPPPAAPAQPPPGVINDQQLHHLPSGPPWWPPICDPPQPSKTQGQSRGQSRGRGRGRGRGRGKGKSRDKQRKPGGPWRPEPNTSSPSMPELSPVSRTHQGQGAGDSPTPGPSNAAPVCRNSHTATPNVSPI
50

Name the recorded % Complex formation of the binder listed here: wild-type EBNA2 peptide comprised of amino acids 252-425 (type A) (other, range 252-425; In vitro transcribed and translated, labeled with 35S-methionine; also called aa252-425 (wild-type); E2 252-425) LHVPDQSMHPLTHQSTPNDPDSPEPRSPTVFYNIPPMPLPPSQLPPPAAPAQPPPGVINDQQLHHLPSGPPWWPPICDPPQPSKTQGQSRGQSRGRGRGRGRGRGKGKSRDKQRKPGGPWRPEPNTSSPSMPELSPVLGLHQGQGAGDSPTPGPSNAAPVCRNSHTATPNVSPI
100
